In this section we review reported viability, T/C values for a set of compounds.
test system: 349418-098-R-PDC complex spheroid viability; assay: Anticancer human tumor 349418-098-R-PDC patient-derived lung adenocarcinoma cell line growth inhibition [RAS]; settings: compound 0.1 µM; active compounds read low
readout name: viability, T/C

1) CC(=O)OC12COC1CC(O)C1(C)C(=O)C(O)C3=C(C)C(OC(=O)C(O)C(NC(=O)OC(C)(C)C)c4ccccc4)CC(O)(C(OC(=O)c4ccccc4)C21)C3(C)C (stereo unspecified)
14.6% [middle of 4 runs]
2) CC(Nc1ccc2c(c1)OCCn1cc(N3C(=O)OCC3C(F)F)nc1-2)C(N)=O (stereo unspecified)
49.6% [middle of 4 runs]
3) C[C@@H](NC(=O)c1ncnc(N)c1Cl)c1ncc(C(=O)Nc2cc(C(F)(F)F)c(Cl)cn2)s1
109% [middle of 4 runs]
4) CC1(O)CCCC1n1c(=O)c(C(F)F)cc2cnc(NC3CCN(S(C)(=O)=O)CC3)nc21 (stereo unspecified)
43% [middle of 4 runs]
5) O=C(c1ccc(F)c(F)c1Nc1ccc(I)cc1F)N1CC(O)([C@@H]2CCCCN2)C1
12.2% [middle of 4 runs]
6) Cc1nc(N2CCC3(CC2)COC(C)C3N)c(CO)nc1Sc1ccnc(N)c1Cl (stereo unspecified)
102% [middle of 4 runs]
7) Nc1ccn(C2OC(CO)C(O)C2(F)F)c(=O)n1 (stereo unspecified)
5.46% [middle of 4 runs]
8) C=CC(=O)N1CCN(c2nc(OCC3CCCN3C)nc3c(F)c(-c4nc(N)cc(C)c4C(F)(F)F)c(Cl)cc23)C(C)C1 (stereo unspecified)
102% [middle of 12 runs]
9) CCN1CCN(Cc2ccc(Nc3ncc(F)c(-c4cc(F)c5nc(C)n(C(C)C)c5c4)n3)nc2)CC1
28.7% [middle of 4 runs]
10) CC(C)NCC(C(=O)N1CCN(c2ncnc3c2C(C)CC3O)CC1)c1ccc(Cl)cc1 (stereo unspecified)
81.7% [middle of 4 runs]
11) CC(C)n1nc(-c2ccc3oc(N)nc3c2)c2c(N)ncnc21
7.93% [middle of 4 runs]

====

Test system: 349418-098-R-PDC complex spheroid viability
Experiment: Anticancer human tumor 349418-098-R-PDC cell line growth inhibition [RAS];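 also: spheroids exposed to compound for seven days before viability readout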
Settings: second compound 0.000949 µM; first compound 0.000949 µM; active compounds read low
Description: RAS pathway inhibitors in Combinations in Complex Spheroids A high-throughput screen of multi-cell type tumor spheroids was designed to identify active combinations of RAS pathway inhibitors and targeted small molecules. Complex spheroids include a stromal component modeled by human endothelial cells (HUVEC) and fibroblasts modeled by human mesenchymal stem cells (MSCs). […] Compounds. […] If the clinical Cmax for an agent had not been determined, the highest concentration tested was 10 microM. […]
Each record here notes measured viability, T/C.
readout name: viability, T/C

1) CC1(C)CCC(Nc2ncc(C(F)(F)F)c(-c3c[nH]c4c(P(C)(C)=O)c(C#N)ccc34)n2)CN1 (centres undefined) + CCn1c(-c2cccnc2C(C)OC)c2c3cc(ccc31)N1CCOC(CC(NC(=O)C(C(C)C)N(C)C(=O)C3(F)CCN(C(=O)C#CC(C)(C)N(C)C)CC3)C(=O)N3CCCC(N3)C(=O)OCC(C)(C)C2)C1
36.9%
2) CCc1c2c(nc3ccc(O)cc13)-c1cc3c(c(=O)n1C2)COC(=O)[C@]3(O)CC + CCn1c(-c2cccnc2C(C)OC)c2c3cc(ccc31)N1CCOC(CC(NC(=O)C(C(C)C)N(C)C(=O)C3(F)CCN(C(=O)C#CC(C)(C)N(C)C)CC3)C(=O)N3CCCC(N3)C(=O)OCC(C)(C)C2)C1
77.2%
3) CC1(C)CCC(Nc2ncc(C(F)(F)F)c(-c3c[nH]c4c(P(C)(C)=O)c(C#N)ccc34)n2)CN1 (centres undefined) + CCn1c(-c2cc(N3CCN(C)CC3)cnc2C(C)OC)c2c3cc(ccc31)-c1csc(n1)CC(NC(=O)C1CC1C)C(=O)N1CCCC(N1)C(=O)OCC(C)(C)C2
53.6%
4) CCc1c2c(nc3ccc(O)cc13)-c1cc3c(c(=O)n1C2)COC(=O)[C@]3(O)CC + CCn1c(-c2cc(N3CCN(C)CC3)cnc2C(C)OC)c2c3cc(ccc31)-c1csc(n1)CC(NC(=O)C1CC1C)C(=O)N1CCCC(N1)C(=O)OCC(C)(C)C2
88%

====

tested on: 349418-098-R-PDC complex spheroid viability; test: Anticancer human tumor 349418-098-R-PDC cell line growth inhibition [RAS]; conditions: second compound 10 µM; first compound 0.00316 µM; active compounds read low;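 also: spheroids exposed to compound for seven days before viability readout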
readout name: viability, T/C (%)

1. CCN1CCN(Cc2ccc(Nc3ncc(F)c(-c4cc(F)c5nc(C)n(C(C)C)c5c4)n3)nc2)CC1 + C#Cc1c(F)ccc2cc(O)cc(-c3ncc4c(N5CC6CCC(C5)N6)nc(OCC56CCCN5CC(F)C6)nc4c3F)c12
26.7
2. O=C(c1ccc(F)c(F)c1Nc1ccc(I)cc1F)N1CC(O)([C@@H]2CCCCN2)C1 + C#Cc1c(F)ccc2cc(O)cc(-c3ncc4c(N5CC6CCC(C5)N6)nc(OCC56CCCN5CC(F)C6)nc4c3F)c12
16.8
3. C=CC(=O)Nc1cc(Nc2nccc(-c3cn(C)c4ccccc34)n2)c(OC)cc1N(C)CCN(C)C + C#Cc1c(F)ccc2cc(O)cc(-c3ncc4c(N5CC6CCC(C5)N6)nc(OCC56CCCN5CC(F)C6)nc4c3F)c12
55.6
4. Nc1ccn(C2OC(CO)C(O)C2(F)F)c(=O)n1 (stereo unspecified) + C#Cc1c(F)ccc2cc(O)cc(-c3ncc4c(N5CC6CCC(C5)N6)nc(OCC56CCCN5CC(F)C6)nc4c3F)c12
16
5. CC(C)n1nc(-c2ccc3oc(N)nc3c2)c2c(N)ncnc21 + C#Cc1c(F)ccc2cc(O)cc(-c3ncc4c(N5CC6CCC(C5)N6)nc(OCC56CCCN5CC(F)C6)nc4c3F)c12
28.5
6. C=CC(=O)N1CCN(c2nc(OCC3CCCN3C)nc3c(F)c(-c4nc(N)cc(C)c4C(F)(F)F)c(Cl)cc23)C(C)C1 (stereo unspecified) + C#Cc1c(F)ccc2cc(O)cc(-c3ncc4c(N5CC6CCC(C5)N6)nc(OCC56CCCN5CC(F)C6)nc4c3F)c12
91

====

test system: 349418-098-R-PDC complex spheroid viability; experiment: Anticancer human tumor 349418-098-R-PDC cell line growth inhibition [RAS]; conditions: second compound 0.003 µM; first compound 0.003 µM; active compounds read low;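 also: spheroids exposed to compound for seven days before viability readout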
// reported viability, T/C for each item listed
readout name: viability, T/C (%)

1) CCc1c2c(nc3ccc(O)cc13)-c1cc3c(c(=O)n1C2)COC(=O)[C@]3(O)CC + CCn1c(-c2cccnc2C(C)OC)c2c3cc(ccc31)N1CCOC(CC(NC(=O)C(C(C)C)N(C)C(=O)C3(F)CCN(C(=O)C#CC(C)(C)N(C)C)CC3)C(=O)N3CCCC(N3)C(=O)OCC(C)(C)C2)C1
42.5
2) CC1(C)CCC(Nc2ncc(C(F)(F)F)c(-c3c[nH]c4c(P(C)(C)=O)c(C#N)ccc34)n2)CN1 (centres undefined) + CCn1c(-c2cccnc2C(C)OC)c2c3cc(ccc31)N1CCOC(CC(NC(=O)C(C(C)C)N(C)C(=O)C3(F)CCN(C(=O)C#CC(C)(C)N(C)C)CC3)C(=O)N3CCCC(N3)C(=O)OCC(C)(C)C2)C1
22.8
3) CC1(C)CCC(Nc2ncc(C(F)(F)F)c(-c3c[nH]c4c(P(C)(C)=O)c(C#N)ccc34)n2)CN1 (centres undefined) + CCn1c(-c2cc(N3CCN(C)CC3)cnc2C(C)OC)c2c3cc(ccc31)-c1csc(n1)CC(NC(=O)C1CC1C)C(=O)N1CCCC(N1)C(=O)OCC(C)(C)C2
22.1
4) CCc1c2c(nc3ccc(O)cc13)-c1cc3c(c(=O)n1C2)COC(=O)[C@]3(O)CC + CCn1c(-c2cc(N3CCN(C)CC3)cnc2C(C)OC)c2c3cc(ccc31)-c1csc(n1)CC(NC(=O)C1CC1C)C(=O)N1CCCC(N1)C(=O)OCC(C)(C)C2
43.8

====

tested on: 349418-098-R-PDC complex spheroid viability; assay: Anticancer human tumor 349418-098-R-PDC cell line growth inhibition [RAS]; settings: second compound 0.000949 µM; first compound 0.03 µM; active compounds read low;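 also: spheroids exposed to compound for seven days before viability readout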
// reported viability, T/C for each item listed
readout name: viability, T/C (%)

1) CCc1c2c(nc3ccc(O)cc13)-c1cc3c(c(=O)n1C2)COC(=O)[C@]3(O)CC + CCn1c(-c2cc(N3CCN(C)CC3)cnc2C(C)OC)c2c3cc(ccc31)-c1csc(n1)CC(NC(=O)C1CC1C)C(=O)N1CCCC(N1)C(=O)OCC(C)(C)C2
6.15
2) CC1(C)CCC(Nc2ncc(C(F)(F)F)c(-c3c[nH]c4c(P(C)(C)=O)c(C#N)ccc34)n2)CN1 (centres undefined) + CCn1c(-c2cccnc2C(C)OC)c2c3cc(ccc31)N1CCOC(CC(NC(=O)C(C(C)C)N(C)C(=O)C3(F)CCN(C(=O)C#CC(C)(C)N(C)C)CC3)C(=O)N3CCCC(N3)C(=O)OCC(C)(C)C2)C1
8.99
3) CC1(C)CCC(Nc2ncc(C(F)(F)F)c(-c3c[nH]c4c(P(C)(C)=O)c(C#N)ccc34)n2)CN1 (centres undefined) + CCn1c(-c2cc(N3CCN(C)CC3)cnc2C(C)OC)c2c3cc(ccc31)-c1csc(n1)CC(NC(=O)C1CC1C)C(=O)N1CCCC(N1)C(=O)OCC(C)(C)C2
9.61
4) CCc1c2c(nc3ccc(O)cc13)-c1cc3c(c(=O)n1C2)COC(=O)[C@]3(O)CC + CCn1c(-c2cccnc2C(C)OC)c2c3cc(ccc31)N1CCOC(CC(NC(=O)C(C(C)C)N(C)C(=O)C3(F)CCN(C(=O)C#CC(C)(C)N(C)C)CC3)C(=O)N3CCCC(N3)C(=O)OCC(C)(C)C2)C1
4.7

Source listed as PubChem BioAssay AID2060904.
